Tested on: U251 CNS
Assay: NCI-60 one-dose screen, 48 h (100 = growth as untreated, 0 = no growth, -100 = all killed)
Details: 10 µM unless noted
Procedure: Growth inhibition of the U251 human tumor cell line is measured as a screen for anti-cancer activity. Cells are grown in 96 well plates and exposed to the test compound for 48 hours. Compounds are tested at a single concentration, which is 10^-5 M for most compounds. The reported endpoint is percent growth (GI% or GIPRCNT), where numbers from 0 - 100% represent growth inhibition, and numbers from -100% - 0 represent cell death. For example, a value of 40 represents 60% growth inhibition. […]
This is part of a sample that, as a whole, favours compounds with a hit. Of some 83,000 tested, about 20% had one in any assay.
Measured growth determines class: Low (below 40%), Mid (40% to below 90%), High (90% or more)

# Compound, Label value
records = [
    ("COC(=O)C1CCCN1C(=O)[C@@H]1CCCN1C(=O)[C@H](Cc1c[nH]c2ccccc12)NC(=S)Nc1cc(C(F)(F)F)cc(C(F)(F)F)c1 (stereo partly specified)", "Low"),
    ("COc1cc(-c2nn(-c3cccc(NC(=O)c4ccccc4)c3)cc2-c2ccncc2)ccc1Cl", "Low"),
    ("CC(O)CN1CCCCC1 (stereo unspecified)", "High"),
    ("COc1ccc(C2CC(c3ccc(OC)cc3OC)=NN2c2ccc(S(N)(=O)=O)cc2)cc1 (stereo unspecified)", "Mid"),
    ("Cc1cc(N)n(S(=O)(=O)c2oc(-c3ccccc3)nc2C#N)n1", "Mid"),
    ("O=C(O)/C=C/C(=O)c1ccc(Cl)cc1", "High"),
    ("CCCOC(=O)n1cccc1", "High"),
    ("C=COC(=O)CCCCCCCCC", "High"),
    ("Nc1ccc(C(=O)CSc2nc3ccccc3[nH]2)cc1", "High"),
    ("COc1ccc(-c2nc(-c3nc4cc(C)c(C)cc4[nH]3)cc3c2[nH]c2ccccc23)cc1", "Low"),
    ("COc1ccc2c(c1)[nH]c(=O)c1c3cccc(F)c3cn21", "Low"),
    ("Cc1cc(C(C)(C)C)ccc1S", "High"),
    ("CN1CCN(Cc2ccc(NC(=O)c3cncc(C#Cc4cnc(N)c5cnccc45)c3)cc2C(F)(F)F)CC1", "Low"),
    ("Cc1csc(NC(c2ccccc2)c2c(C)nc3ccccn23)n1 (stereo unspecified)", "High"),
    ("CCCCCc1cc[n+](CC(=O)c2ccc([N+](=O)[O-])cc2)cc1", "Mid"),
    ("CCCCCCCC/C=C/CCCCCCCC1=NC(C)(C)CN1C(C)(C)CO", "Low"),
    ("CC(C)(C)n1cc(-c2ccnc(NCCCNS(=O)(=O)c3ccc(Br)cc3)c2)c(-c2cccc(O)c2)n1", "Low"),
    ("COc1ccc(-c2nc(/C=N/Nc3cc(C)nc4ccc(Cl)cc34)c(C)o2)cc1", "Low"),
    ("CC(C)(C)n1cc(-c2ccnc(NCCCNS(=O)(=O)c3ccc(C(F)(F)F)cc3)c2)c(-c2cccc(O)c2)n1", "Low"),
    ("Cc1nc2ncccc2nc1Nc1ccc(S(=O)(=O)Nc2ccccn2)cc1", "High"),
    ("C/C=C(\\C)C(C(=O)NC1CCCCC1)N(C(=O)C1CCc2cc(F)ccc2O1)c1ccc(Cl)cc1 (stereo unspecified)", "High"),
    ("COC(=O)c1nc(-c2ccccc2)oc1S(=O)(=O)N1CCN(c2cccc(Cl)c2)CC1", "Mid"),
    ("COc1cc(-c2nn(-c3cccc(NC(=O)Nc4cc(C(F)(F)F)cc(C(F)(F)F)c4)c3)cc2-c2ccncc2)ccc1Cl", "Low"),
    ("C=C(C)[C@@H]1C[C@H](O)Cc2cc(F)ccc2N1", "High"),
    ("CCN(CC)CCCC(C)Nc1c2ccc(Cl)cc2nc2cc(OC)c(OC)cc12 (stereo unspecified)", "Low"),
    ("Cc1nc2cncc(C#Cc3cncc(C(=O)Nc4ccc(CN5CCN(C)CC5)c(C(F)(F)F)c4)c3)c2nc1C", "Low"),
    ("NC(=O)CCCN1C/C(=C\\c2ccccc2)C(=O)c2ccccc21", "High"),
    ("CCCCNC(=O)Oc1ccc(/C(=C(\\C)c2ccccc2)c2ccc(OCCN(CC)CC)cc2)cc1", "Mid"),
    ("COc1ccc(S(=O)(=O)NCCCNc2nccc(-c3c(-c4cccc([N+](=O)[O-])c4)nc4sccn34)n2)cc1", "Mid"),
    ("C/C(=N/NC(=S)Nc1ccccc1)c1nc2ccc(Cl)cc2[nH]1", "Low"),
    ("C/C(=C\\c1ccc(OCC(=O)O)c(Cl)c1Cl)[N+](=O)[O-]", "High"),
    ("COc1ccc(OC)c(/C=C2\\Oc3cc(OCCCN4CCCC4)ccc3C2=O)c1", "Mid"),
    ("CCC(=O)Oc1ccc(/C(=C(/C)Cc2cccc(OC)c2)c2ccc(OCCN(C)C)cc2)cc1", "Mid"),
    ("CCOC(=O)c1ccc(NC(=O)N2CC(C)OC(C)C2)cc1 (stereo unspecified)", "High"),
    ("CC1=C(C#N)C(=O)NC(C)C1 (stereo unspecified)", "High"),
    ("CN(C)c1ncnc2c1ccn2C1OC(CO)C(O)C1O (stereo unspecified)", "High"),
    ("O=C(O)c1cn(C2CC2)c2cc(N3CCN(C(=O)/C=C/c4ccc(Cl)cc4)CC3)c(F)cc2c1=O", "Mid"),
    ("Clc1ccc2c(NC3CCC(NC4CCCCC4)CC3)ccnc2c1 (stereo unspecified)", "Low"),
]
